Target: human recombinant 5-HT1A receptor (Homo sapiens (Human), UniProt P08908)
Sequence (P08908 whole entry): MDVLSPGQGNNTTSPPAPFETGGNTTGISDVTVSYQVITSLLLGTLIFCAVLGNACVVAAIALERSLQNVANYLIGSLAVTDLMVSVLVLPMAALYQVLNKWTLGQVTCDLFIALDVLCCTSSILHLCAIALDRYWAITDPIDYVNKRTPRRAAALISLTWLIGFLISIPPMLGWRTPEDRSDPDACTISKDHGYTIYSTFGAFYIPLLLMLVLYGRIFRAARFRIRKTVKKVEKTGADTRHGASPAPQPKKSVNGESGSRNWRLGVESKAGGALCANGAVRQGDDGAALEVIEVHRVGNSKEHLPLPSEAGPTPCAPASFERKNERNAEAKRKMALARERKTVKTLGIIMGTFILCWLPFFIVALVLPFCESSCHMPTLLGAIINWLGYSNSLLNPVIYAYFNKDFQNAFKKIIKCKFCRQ
Assay: 5-HT1A receptor agonism activity test (inhibition of cAMP production, LANCE cAMP 384 Kit)
Conditions: HEK293 cells expressing human recombinant 5-HT1A receptor; test concentration 0.1 nM-10000 nM; read-out: 5-HT1A receptor agonism (EC50, mol/L)
// reported EC50 for each item listed
A number alone suffices; assume nM.

A selection of reference data follows.
COMPOUND | EC50 (nM)
O=c1ccc2ccc(CCCCN3CCN(c4cccc5sccc45)CC3)cc2[nH]1 | 2.24
Cc1nc2n(c(=O)c1CCN1CCN(c3cccc4sc(F)cc34)CC1)CCCC2O.Cl (stereo not shown) [Compound of example 131, hydrochloride] | 26
O=c1[nH]c2ccc(CCN3CCN(c4cccc5sc(F)cc45)CC3)cc2[nH]1 | 4.8
O=c1ccc2ccc(CCN3CCN(c4cc(F)cc5sccc45)CC3)cc2[nH]1 | 3.29
O=C1COc2ccc(CCCCN3CCN(c4cccc5sccc45)CC3)cc2N1 | 1.81
COc1ccc2[nH]cc(CCCCN3CCN(c4cccc5sccc45)CC3)c2c1 | 7.95

Now, please, on to the next compound.
In: Give the measured EC50 of `O=C1CCc2ccc(CCN3CCN(c4cc(F)cc5sccc45)CC3)cc2N1` .
Out: 1.38
